Target: human delta opioid receptor (DOR) (Homo sapiens)
Sequence (P41143 whole entry): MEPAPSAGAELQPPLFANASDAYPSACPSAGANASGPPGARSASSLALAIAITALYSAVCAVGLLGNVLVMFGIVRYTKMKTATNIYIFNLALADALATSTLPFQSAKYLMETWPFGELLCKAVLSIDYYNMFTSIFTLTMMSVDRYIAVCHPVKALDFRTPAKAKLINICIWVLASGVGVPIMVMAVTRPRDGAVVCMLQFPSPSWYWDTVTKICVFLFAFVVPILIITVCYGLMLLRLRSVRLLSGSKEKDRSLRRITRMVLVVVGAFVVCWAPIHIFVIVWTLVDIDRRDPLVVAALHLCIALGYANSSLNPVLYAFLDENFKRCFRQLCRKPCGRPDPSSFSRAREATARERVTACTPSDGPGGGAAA
Experiment: BRET assay measuring G protein activation, agonist activity at human DOR
Where a name gives a salt, the structure may show the parent alone.
quantity_kind: EC50

[[record]]
molecule = "CN1c2ccccc2C(NCCCCCCCC(=O)O)c2ccc(I)cc2S1(=O)=O (racemic) [Compound 9e, hydrochloride salt]"
result = "0.724 µM"

[[record]]
molecule = "CN1c2ccccc2C(NCCCCCCCCCC(=O)O)c2ccc(I)cc2S1(=O)=O (racemic) [Compound 9g, hydrochloride salt]"
result = "0.262 µM"

